- system tested: T1, TIGIT fusion protein with Fc or mFc tag (human, UniProt Q495A1 22-141)
- T1 construct: extracellular domain; also called TIGIT-Fc; TIGIT-mFc
- T1 sequence (looked up): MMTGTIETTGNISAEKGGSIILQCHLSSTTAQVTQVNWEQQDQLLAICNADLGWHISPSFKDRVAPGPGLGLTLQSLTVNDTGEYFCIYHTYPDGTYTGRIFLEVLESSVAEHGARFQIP
- assay text: FACS blocking assay: TIGIT-mFc pre-incubated with the antibody, added to CHO cells overexpressing CD112 (blocked ligand), PE anti-mouse IgG, MFI
observable: IC50 (read off the curve)

// sample h1710-01 (antibody, human IgG4 S228P, kappa, V domains shown, also called humanized TIGIT antibody h1710-01) VH: EVQLVQSGAEVKKPGASVKVSCKASGYTFTNYYMHWVRQAPGQGLEWMGRIDPTSGATKYNDNFKGRVTMTRDTSTSTVYMELSSLRSEDTAVYYCAREGGFGYYFDYWGQGTTVTVSS VL: DIQMTQSPSSLSASVGDRVTITCRTSENIFTYLAWYQQKPGKAPKLLIYNAKTFAEGVPSRFSGSGSGTDFTLTISSLQPEDFATYYCQHHYGIPLPFGQGTKLEIKR , its IC50 (read off the curve) was ~5 nM
